Target: HDAC6 enzyme (Homo sapiens, UniProt Q9UBN7)
Construct: transducing full length HDAC6 gene into Sf-9 insect cells; GST; purchased SignalChem; host or cells: Sf-9 insect cells
Sequence (Q9UBN7 whole entry): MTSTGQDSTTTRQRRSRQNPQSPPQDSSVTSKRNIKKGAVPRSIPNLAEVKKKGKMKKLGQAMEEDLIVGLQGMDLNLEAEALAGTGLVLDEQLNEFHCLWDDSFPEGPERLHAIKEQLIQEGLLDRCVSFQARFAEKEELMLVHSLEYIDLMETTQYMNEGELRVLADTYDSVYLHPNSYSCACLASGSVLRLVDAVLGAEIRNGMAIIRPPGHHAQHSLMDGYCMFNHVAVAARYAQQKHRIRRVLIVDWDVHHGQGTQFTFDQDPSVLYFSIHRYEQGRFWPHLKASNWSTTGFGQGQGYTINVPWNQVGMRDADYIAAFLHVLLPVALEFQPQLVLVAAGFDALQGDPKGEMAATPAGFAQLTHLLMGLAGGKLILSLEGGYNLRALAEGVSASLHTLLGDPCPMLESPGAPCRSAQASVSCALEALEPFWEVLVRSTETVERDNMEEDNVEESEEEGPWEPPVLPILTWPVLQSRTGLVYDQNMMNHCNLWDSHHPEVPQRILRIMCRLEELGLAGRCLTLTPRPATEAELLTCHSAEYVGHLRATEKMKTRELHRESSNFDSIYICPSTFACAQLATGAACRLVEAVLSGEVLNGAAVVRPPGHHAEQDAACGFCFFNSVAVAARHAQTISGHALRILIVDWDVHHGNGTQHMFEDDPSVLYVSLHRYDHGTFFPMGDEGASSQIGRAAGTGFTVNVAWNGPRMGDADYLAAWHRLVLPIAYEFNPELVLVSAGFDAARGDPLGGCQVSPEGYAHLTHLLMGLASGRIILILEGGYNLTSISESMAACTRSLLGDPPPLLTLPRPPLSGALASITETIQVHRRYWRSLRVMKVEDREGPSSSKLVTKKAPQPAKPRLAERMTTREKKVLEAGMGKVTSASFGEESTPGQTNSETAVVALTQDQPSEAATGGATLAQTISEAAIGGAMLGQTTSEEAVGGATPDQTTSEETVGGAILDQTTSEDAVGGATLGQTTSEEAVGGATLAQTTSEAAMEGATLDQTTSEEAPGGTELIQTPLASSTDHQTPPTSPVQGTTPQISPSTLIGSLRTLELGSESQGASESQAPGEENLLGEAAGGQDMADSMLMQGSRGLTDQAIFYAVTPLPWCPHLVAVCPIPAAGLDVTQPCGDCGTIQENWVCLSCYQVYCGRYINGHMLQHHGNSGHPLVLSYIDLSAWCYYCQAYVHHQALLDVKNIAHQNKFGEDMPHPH
Test: HDAC6 enzyme inhibitory activity (HDAC-Glo I/II Assay kit)
Format: biochemical
Details: 10 μM; wells without enzyme = 100% inhibition; read-out: HDAC6 inhibitory rate (%) (10 μM)
Method: HDAC6 enzyme prepared by transducing full length HDAC6 gene into Sf-9 insect cells and purifying by GST affinity column were purchased from SignalChem. Using this enzyme, HDAC6 enzyme inhibitory activities of the compound of the present invention were evaluated. Enzymes were used after preserved at −70° C. HDAC6 enzyme inhibitory activity of the compound of the present invention was measured using HDAC-Glo™ I/II Assay kit (Promega) according to the following experimental method. […]
measurement_name: inhibition at 10 µM (%)

- CCc1cc(CC)n([C@@H]2CCCC[C@H]2N2Cc3ccc(-c4nnc(C(F)F)o4)cc3C2=O)n1: 98
- CC(C)C(=O)N[C@@H]1CCCC[C@H]1N1Cc2ccc(-c3nnc(C(F)F)o3)cc2C1=O: 102
- O=C1NCCCN1[C@@H]1CCCC[C@H]1N1Cc2ccc(-c3nnc(C(F)F)o3)cc2C1=O: 97
- O=C1c2cc(-c3nnc(C(F)F)o3)ccc2CN1c1ccccc1-c1ccc(OC(F)(F)F)cc1: 94
